Some compounds, each annotated with its measured TLR 8 wt LEC.
# target_entity: human TLR8 (wild type sequence) (Homo sapiens, UniProt Q9NR97)
# Construct: expressed in transfected cells; host or cells: HEK293
# Sequence (Q9NR97 27-1041): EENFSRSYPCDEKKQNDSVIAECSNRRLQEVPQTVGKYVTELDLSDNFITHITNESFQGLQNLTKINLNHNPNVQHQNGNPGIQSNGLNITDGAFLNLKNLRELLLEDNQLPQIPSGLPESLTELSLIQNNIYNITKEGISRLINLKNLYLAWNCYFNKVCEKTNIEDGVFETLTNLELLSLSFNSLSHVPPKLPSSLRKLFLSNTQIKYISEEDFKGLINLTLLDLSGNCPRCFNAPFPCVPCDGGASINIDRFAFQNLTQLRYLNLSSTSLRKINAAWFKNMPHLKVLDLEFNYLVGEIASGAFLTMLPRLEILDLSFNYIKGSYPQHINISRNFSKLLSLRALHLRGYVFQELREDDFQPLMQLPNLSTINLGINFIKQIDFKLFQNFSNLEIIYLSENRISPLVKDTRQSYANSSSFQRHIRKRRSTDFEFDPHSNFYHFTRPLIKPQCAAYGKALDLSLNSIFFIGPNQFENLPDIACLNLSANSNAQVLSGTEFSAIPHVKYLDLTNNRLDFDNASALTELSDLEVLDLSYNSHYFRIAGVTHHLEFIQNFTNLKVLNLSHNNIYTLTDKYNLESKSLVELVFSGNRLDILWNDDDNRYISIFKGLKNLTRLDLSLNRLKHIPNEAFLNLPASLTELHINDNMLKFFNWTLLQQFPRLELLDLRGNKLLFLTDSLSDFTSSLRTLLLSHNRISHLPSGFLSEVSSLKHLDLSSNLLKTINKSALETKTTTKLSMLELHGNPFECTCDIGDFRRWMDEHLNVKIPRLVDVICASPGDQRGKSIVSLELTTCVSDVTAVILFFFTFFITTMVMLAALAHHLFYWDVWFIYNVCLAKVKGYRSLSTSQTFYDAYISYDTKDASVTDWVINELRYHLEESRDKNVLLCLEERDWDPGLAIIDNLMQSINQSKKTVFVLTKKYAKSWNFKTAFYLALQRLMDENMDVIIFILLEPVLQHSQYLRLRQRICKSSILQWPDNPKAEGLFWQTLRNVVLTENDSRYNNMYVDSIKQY
# test_name: TLR8 cellular NFκB-luc reporter assay, wild type TLR8
# Format: cell-based
# Parameters: unit not given here
# conditions_used: lowest effective concentration, wild type TLR8 (compounds 74 onward)
Reply with just the number.

>>> print(df.to_string())
                                   compound  observed
0  CCCC(C)Nc1nc(N)nc(C)c1OCc1ccccc1 (centres unmarked)    14.900

Form field: reported TLR 8 wt LEC of CCCCNc1nc(N)ncc1OCC(C)(O)CC (centres unmarked)
12.390

Also CCCCNc1nc(N)ncc1OCc1cncn1[C@H](C)c1ccccc1 ?
5.690

Thanks! And CCCCNc1nc(N)ncc1OCc1nccc(OCC(F)(F)F)c1C ?
0.286

Cool, now CCC[C@@H](CCO)Nc1nc(N)ncc1OCc1nccc(OC)c1OC
0.567

---

# Test system: HCV replicon in Huh-7 luc/neo cells
# test_name: Suppression of HCV replicon replication by conditioned media from compound-treated PBMC
# Assay type: cell-based, HCV type 1 b
# conditions_used: Hepatitis C virus; conditioned media from compound-treated PBMC on Huh-7 luc/neo replicon cells (compounds 74 onward); read-out: PBMC HUH-7 EC50
# Procedure: Activation of human TLR7 results in robust production of interferon by plasmacytoid dendritic cells present in human blood. The potential of compounds to induce interferon was evaluated by looking at the antiviral activity in the HCV replicon system upon incubation with conditioned media from peripheral blood mononuclear cells (PBMC). […]
endpoint_name: EC50 (nM)
Just the number please, in nM, no unit attached.

The examples below pair each entry with its known result.
                                   compound                        target_entity  endpoint_name  unit_abbreviation  observed
0       CCCCNc1nc(N)ncc1OCc1ccc(C(F)(F)F)o1  HCV replicon in Huh-7 luc/neo cells           EC50                 nM       193
1  CCCC(C)Nc1nc(N)ncc1OCc1ccc2ccccc2n1 (stereo not shown)  HCV replicon in Huh-7 luc/neo cells           EC50                 nM       488
2        CCCCNc1nc(N)ncc1OCCCc1ccc(Cl)cc1Cl  HCV replicon in Huh-7 luc/neo cells           EC50                 nM      3350

Requested field: EC50. Item: CCCC[C@@H](CCO)Nc1nc(N)ncc1OCCCc1ccccc1
251

Same again, this time with CCCCNc1nc(N)ncc1OCCCCCc1ccccc1
96

Now give it for CCCCNc1nc(N)ncc1OCc1ccccn1 too.
55

---

# target_entity: human TLR8 (wild type sequence) (Homo sapiens, UniProt Q9NR97)
# Construct: expressed in transfected cells; host or cells: HEK293
# test_name: TLR8 cellular NFκB-luc reporter assay, wild type TLR8
# Assay type: cell-based
# Set-up: unit not given here
# conditions_used: lowest effective concentration, wild type TLR8 (compounds 74 onward)
endpoint_name: TLR 8 wt LEC
Format: numeric value only, no unit, no commentary.

In [3]: df
Out[3]:
                                   compound                             target_entity  observed
0              CCCCNc1nc(N)ncc1OCc1c[nH]nn1  human TLR8 (wild type sequence) (Homo sapiens, UniProt Q9NR97)     3.750
1  CCCC[C@@H](CCO)Nc1nc(N)ncc1OCc1cc(C)nn1C  human TLR8 (wild type sequence) (Homo sapiens, UniProt Q9NR97)     0.429
2  CCC[C@@H](CO)Nc1nc(N)ncc1OCc1nccc2ccccc12  human TLR8 (wild type sequence) (Homo sapiens, UniProt Q9NR97)     0.056
3  CCCCNc1nc(N)ncc1OCc1cccc(C(=O)c2ccccc2)c1  human TLR8 (wild type sequence) (Homo sapiens, UniProt Q9NR97)     1.270

May I ask what TLR 8 wt LEC has been recorded for CCCCNc1nc(N)ncc1OCc1nccc2ccccc12 ?
0.143

Proceed to CCCCNc1nc(N)ncc1OCCCCc1ccccc1
3.780

Would you mind doing CCCCNc1nc(N)ncc1OCc1nccc(OC)c1OC as well?
0.524
